# protocol-notes: yeast display, Sf9 membrane polyspecificity reagent, FACS + sequencing; frameworks hold sequencing errors
readout-label: polyreactivity (PSR sort gate)

Example sequences with recorded polyreactivity (PSR sort gate):
QDQLGESGGGIVQAGGSLRLSCASSGINFLDKAMGWYRPAQGKETELVAAYADSVKGRFTISRDNAKNTVYLQMNSLSAEDTAVYYCNAGWIRYYGFSIVSYDYWGQGTQVTVSS: low polyreactivity
QVQLVESGGGLVQAGGSLRLSCAASGRIFVPYAMGWYRQAPGKVREFVAAISYRGGSTYYADSVKGRFTISRDNAKNTVYLQMNSLKPEDTAVYYCAKVIPYRGKVTLDYWGQGTQVTVSS: low polyreactivity
QDQLVESGGGLVQARGSLRLSCAASGSIFVHNAMGWYRQAPGKEREFVAAITWSGGSTYYADSVKGRFTISRDYAKNTVYLQMNSLKPEDTAVSYCAAEDVAAQWAYESPTSYWYYYWGQGTQVTVSS: low polyreactivity
QVQLVESGGGLVQAGGSLRLSCAASGSTFGYNAMGWYRQAPGKERELVAAITWSGGSTYYADSVKGRFTISRDNAKNTVYLQMNSLKPEDTAVYYCAADDWYNSTWHYYYWGQGTQVTVSS: low polyreactivity
QVQLVESGGGLVQAGGSLRLSCAASGSTFGRYAMGWYRQAPGKARELVAAITTSGGRTRYADSVKGRFTISRDNAKNTVYLQMNSLKPEDTAVYYCAASGAQGPDYDYWGQGTQVTVSS: low polyreactivity
QVQLVESGGGLVQAGGSLRLSCAASGRIFTTYVMGWYRQAPGKERELVAAISARGSTYYADSVKGRFTISRDNAKNTVYLQMNSLKPEDTAVYYCAAGHRLPVYYGYPRATYNYWGQGTQVTVSS: low polyreactivity

# batch: return polyreactivity (PSR sort gate) for each of the 6 sequences below
1. QVQLVESGGGLVQAGGSLRLSCAASGSTFPVNTMGWYRQAPGKERELVAAITKNGANTYYADSVKGRFTLSRDNAKNTVFLQMNSLKPEDTAVYYCAARYVYGKSYSRWLVELDYWGQATQVTVSS
2. QVQLEESGGGLVQAGGSLRLSCAASGSIFQTYAMGWSRQAPGKERQLVAAITSGGGSTYYADSVKGRFTISRDNAKNTVYLQMNSLKREDTAVYYCAAGSRFVSSRLYYWGQGTQVTVSS
3. QVHLVESGGGLVQAGGSRRLSCAASGRISTLNALGWYRQAPGKVWEFVAAISWRGGSTYYADSVKGRFTISRDNAKNTVYVQMNSLKPEDTAVYYCAARPYTLAFYRFGYWGQGTKVTVSS
4. QVQLVESGGGLVQAGGSLRLSCAASGFTFKYYAMGWYRQAPGKERELVAAINRSGGSTHYADSVKGRFTISRDIAKNTVYLQINSLKPEDTAVYYCAATGRRRTYSEYEYWGQGTQVTVSS
5. QVQLVESGGGLVQAGGSLRLSCAASGFTFYYYAMGWYRQAPGKERELVAAISSGGSTNYADSVKGRFTISRDNAKNTVYLPRNSLKPEDTAVYYCAAPQPYWWAYRYDYWGQGTQVTVSS
6. QVQLVESGGGLVQAGGSLRLSCAASGRTFVFNAMGWYRQAPGKERELVAAISRSGGSTYYADSVKGRFTISRDNAKNTVYLQMNSLKTEDTAVYYCAADTPYLRRRLGMDYWGQGTQVTVSS

Result:
["low polyreactivity", "high polyreactivity", "high polyreactivity", "high polyreactivity", "low polyreactivity", "high polyreactivity"]

----------
# protocol-notes: yeast display, Sf9 membrane polyspecificity reagent, FACS + sequencing; frameworks hold sequencing errors
readout-label: polyreactivity (PSR sort gate)

Example sequences with recorded polyreactivity (PSR sort gate):
QVQLVESGGGLVQAGGSLRLSCAASGRTIRSYAMGWYRQAPGKERELVAAITGSGGRTYYADSVKGRFTISRDNAKNTVYLQMNSLKPEDTAVYYCAARLRGSYDYWGQGTQVTVSS: high polyreactivity
QLQLVESGGGLVQAGGSLRLICAASGRIFATYAMGWYRQAPGKEREFVAAITKGGVRTYYADSVKGRFTISRDNAKNTVYLQMNSLKPEDTAVYYCAADAWVRGRYPYGYDYWGQGTQVTVSS: low polyreactivity
QVQLVESGGGLVQAGGSLRVSCAASGFTFGSYAMGWYRQSPGKERELVAVITRSGRTNYADSVKGRFTISRDNAKNTVYLQMNSLKPEDTAVYYCNADDVDDEVSPDLTEMDYWGQGTQVTVSS: low polyreactivity
QFQLVDSGGALVQAGGSLRLSCAASGFTFYPYAMGWYRQAPGKERELVAAISKRGGSTYYADSVKGRFTISRDHAKNTVYLQMNSLNPEDTAVYYCIAFFNGELYYWGQGTQVTVSS: high polyreactivity

// below: polyreactivity (PSR sort gate) requested for another sequence
Request: If you can, please state the reported polyreactivity (PSR sort gate) value of `QVQLVESGGGLVQAGGSLRLSCAASGFTFSVYAMGWSRQAPGKERELVAAITSDGITNYADSVKGRFTISRDNAKNTVYLQMNSLKPEDTAVYYCNADPGYVRGYDYWGQGTQVTVSS` .
Result: low polyreactivity

----------
# protocol-notes: yeast display, Sf9 membrane polyspecificity reagent, FACS + sequencing; frameworks hold sequencing errors
readout-label: polyreactivity (PSR sort gate)

Example sequences with recorded polyreactivity (PSR sort gate):
QVQLVESGGGLVQAGGSLRLRCAASGSTFYGYAMGRYRQAPGTERELVALISSSSGRTYYADSVKGRFTISRDNAKNTLYLQMNSLKPEDTAVYDCAKYVFGKFEGVRYSFDYWGQGTQVTVSS: low polyreactivity
QVQLVESGGGLVQAGGSLRLSCAASGRIFVYNAMGWYRQAPGKERELVASITSSGGSTYYADSVKGRFTISRDNAKNTVYLQMNSLKPEDTAVYYCAADVQPDTRSTPEMDYWGQGTQVTVSS: low polyreactivity
QVQLEESGGGLVQAGGSLRLSCPASGRTFHGYAMGSYRQAPGKERELVAAITGTGGRTYYADSVKGRFTISRDNAKNTVYLQMNSLKPEDTAVYYCAARPWIKSGYWGQGTQVTVSS: high polyreactivity
QVQLVESGGGLVQAGGSLRLSCAASGSTLLYYAMGWYRQAPGKERELVAAINKSGGRTYYADSVKGRFTISRDNAKNTVYLQMNSLKPEDTAVYYCAVDISVTGSSNRYGYWGQGTQVTVSS: high polyreactivity

Request: If you can, please state the reported polyreactivity (PSR sort gate) value of `QVQLVESGGGLVQAGGSLRLSCAASGRPFSGYAMGWYRQAPGKERELVAAITSSGSSTYYADSVKGRFTISRDNAKNTVYLQMNSLKPEDTAVFYCAATPQAHSERYYYQRKYDYWGQGTQVTVSS` .
Result: low polyreactivity

----------
# protocol-notes: yeast display, Sf9 membrane polyspecificity reagent, FACS + sequencing; frameworks hold sequencing errors
readout-label: polyreactivity (PSR sort gate)

QVQLVESGGGLVQAGGSLRLSCAASGRTFYSYVMGWYRQAPGKERELVAAISSTGGTYADSVKGRFTISRDNAKNTVYLQMNSLKPEDTAVYYCAARVHFPYPDYAWITVLYDYWGQGTQVTVSS: low polyreactivity
QVPLVESGGRLVQAGGSLRLSCAASGSTIGPYTMGWYRQAPGKERELVATISSGGSTYSADSVKGRFTISRDNEKNTVYLQMISLKPEDTAVYYCAARYRSIYDYWGQGTQVTVSS: low polyreactivity

----------
# protocol-notes: yeast display, Sf9 membrane polyspecificity reagent, FACS + sequencing; frameworks hold sequencing errors
readout-label: polyreactivity (PSR sort gate)

Example sequences with recorded polyreactivity (PSR sort gate):
QVQLVESGGGLVQAGGSLRLICAASGFTFADNSMAWYRQAPGKEREFVASITYSTGSTYADSEKGRVTISRDNAKNTVYLEMHSLKPEDTAVYYCAVDNISNWAVENDDWGQGTLVTVSS: low polyreactivity
QVQLVESGGGLVQAGGSLRISCAASGITFYFNAMGWFRQAPGKERDLVAVITSVGSTNYADSVKGRFTISRDNAKNTDYIQMNSLKPEDTAVYYCYRTSYVKTPTKRYNYWGQGTQVTVSS: low polyreactivity
QVQLVESGGGLVQAGGSLRLSCAASGSIFRYYAMGWYRQAPGKERELVATISSSGGTTYYADSVKGRFTISRDNAKNTVYLQMNSLKPEETAVYYCAALWTWHVSYPVHEYDFWGQGTQVTVSS: low polyreactivity
QVQLVESGGVLVQAGGSLRLSCAASGSTFSYYTMGWYRQAPGKERELVATISKRGGTTSYADSVKGRFTISRDNAKNTVYLQMNSLKPEDTAVYYCAARYSKVHYAYDYWGQGTQVTVSS: high polyreactivity
QVQLVESGGGLVQAGGSLRLSCAASGRIIYPYALGWYRQAPGKERELVAAISSGSSTNYADSVKGRFTISRDNAKNTVYLQMNSLQPEDTAVYYCNADLVSGVVYDSDYWGQGTQVTVSS: low polyreactivity

# batch: return polyreactivity (PSR sort gate) for each of the 2 sequences below
1. QVQLVESGGGLVQAGGSLRLSSAPSGSTYYVYDMGWYRQAPGKERELVAAITSGGSTNNADSVKGRFTISRDNAKNTVYLEMKSLKPVDTAVYYCAAQGRVWDSYGYEYVQEVTRDYWGQGTQVNVSS
2. QDQLVESGGGLVQAGGSLRLSCAASGRTIYQNAMGWYRQAPGKERELVAAISRSGGSTYYADSVKGRFTISRDNAKNTVYLQMNSLKPEDTAVYYCAADPRSYGGGYDYWGQGPQVTVSS

Result:
low polyreactivity
high polyreactivity
